Test: Absorption spectrum in ethyl acetate solution (spectrophotometer UV-2400PC)
Type: physicochemical
OBSERVED_PROPERTY: maximum absorption wavelength (λmax) (nm)

# MOLECULE, ENDPOINT_UNIT, maximum absorption wavelength (λmax)
records = [
    ("Cc1c(C(=O)OC2C(C(C)(C)C)CC(C)CC2C(C)(C)C)c(NC(=O)c2cc(F)cc(F)c2)[n]2c1C=C1C(c3ccccc3)=C(C#N)C(NC(=O)C(C)Sc3cc(C(=O)O)cc(C(=O)O)c3)=[N+]1[Zn-]2[OH] (stereo not shown)", "nm", 558),
    ("CC1CC(C(C)(C)C)C(OC(=O)C2=C(c3ccccc3)C3=Cc4c(-c5ccccc5)c(C(=O)OC5C(C(C)(C)C)CC(C)CC5C(C)(C)C)c(NC(=O)c5ccc(F)c(Br)c5)[n]4[Zn-]([OH])[N+]3=C2NC(=O)c2ccc(F)c(Br)c2)C(C(C)(C)C)C1 (stereo not shown)", "nm", 564),
    ("CC1CC(C(C)(C)C)C(OC(=O)C2=C(c3ccccc3)C3=Cc4c(-c5ccccc5)c(C(=O)OC5C(C(C)(C)C)CC(C)CC5C(C)(C)C)c(NC(=O)c5cccc(C(F)(F)F)c5)[n]4[Zn-]([OH])[N+]3=C2NC(=O)c2cccc(C(F)(F)F)c2)C(C(C)(C)C)C1 (stereo not shown)", "nm", 560),
    ("CC1CC(C(C)(C)C)C(OC(=O)C2=C(c3ccccc3)C3=Cc4c(-c5ccccc5)c(C(=O)OC5C(C(C)(C)C)CC(C)CC5C(C)(C)C)c(NC(=O)c5cc(F)ccc5NS(C)(=O)=O)[n]4[Zn-]([OH])[N+]3=C2NC(=O)c2cc(F)ccc2NS(C)(=O)=O)C(C(C)(C)C)C1 (stereo not shown)", "nm", 565),
    ("Cc1c(C(=O)OC2C(C(C)(C)C)CC(C)CC2C(C)(C)C)c(NC(=O)c2ccc(F)c(F)c2)[n]2c1C=C1C(c3ccccc3)=C(C#N)C(NC(=O)C(C)Sc3cc(C(=O)O)cc(C(=O)O)c3)=[N+]1[Zn-]2[OH] (stereo not shown)", "nm", 559),
    ("CC1=C(C(=O)OC2C(C(C)(C)C)CC(C)CC2C(C)(C)C)C(NC(=O)c2cccc(C(F)(F)F)c2)=[N+]2C1=Cc1c(C)c(C(=O)OC3C(C(C)(C)C)CC(C)CC3C(C)(C)C)c(NC(=O)c3cccc(C(F)(F)F)c3)[n]1[Zn-]2[OH] (stereo not shown)", "nm", 552),
    ("CC1CC(C(C)(C)C)C(OC(=O)C2=C(c3ccccc3)C3=Cc4c(-c5ccccc5)c(C(=O)OC5C(C(C)(C)C)CC(C)CC5C(C)(C)C)c(NC(=O)c5cc(C(F)(F)F)cc(C(F)(F)F)c5)[n]4[Zn-]([OH])[N+]3=C2NC(=O)c2cc(C(F)(F)F)cc(C(F)(F)F)c2)C(C(C)(C)C)C1 (stereo not shown)", "nm", 560),
    ("CC1CC(C(C)(C)C)C(OC(=O)c2c(-c3ccccc3)c3[n](c2NC(=O)c2ccc(F)c(Br)c2)[Zn-]([OH])[N+]2=C(NC(=O)C(C)Sc4cc(C(=O)O)cc(C(=O)O)c4)C(C#N)=C(c4ccccc4)C2=C3)C(C(C)(C)C)C1 (stereo not shown)", "nm", 563),
    ("CC1=C(C(=O)OC2C(C(C)(C)C)CC(C)CC2C(C)(C)C)C(NC(=O)c2ccc(F)c([N+](=O)[O-])c2)=[N+]2C1=Cc1c(C)c(C(=O)OC3C(C(C)(C)C)CC(C)CC3C(C)(C)C)c(NC(=O)c3ccc(F)c([N+](=O)[O-])c3)[n]1[Zn-]2[OH] (stereo not shown)", "nm", 555),
    ("CC1CC(C(C)(C)C)C(OC(=O)c2c(-c3ccccc3)c(C=C3N=C(NC(=O)C(C)(C)C)C(C#N)=C3c3ccccc3)[n]([Zn][OH])c2NC(=O)c2cccc(C(F)(F)F)c2)C(C(C)(C)C)C1 (stereo not shown)", "nm", 561),
    ("CC1=C(C(=O)OC2C(C(C)(C)C)CC(C)CC2C(C)(C)C)C(NC(=O)c2ccc(F)c(F)c2)=[N+]2C1=Cc1c(C)c(C(=O)OC3C(C(C)(C)C)CC(C)CC3C(C)(C)C)c(NC(=O)c3ccc(F)c(F)c3)[n]1[Zn-]2[OH] (stereo not shown)", "nm", 550),
    ("CC1CC(C(C)(C)C)C(OC(=O)C2=C(c3ccccc3)C3=Cc4c(-c5ccccc5)c(C(=O)OC5C(C(C)(C)C)CC(C)CC5C(C)(C)C)c(NC(=O)c5cc(F)c(F)c(F)c5)[n]4[Zn-]([OH])[N+]3=C2NC(=O)c2cc(F)c(F)c(F)c2)C(C(C)(C)C)C1 (stereo not shown)", "nm", 559),
    ("CC1CC(C(C)(C)C)C(OC(=O)c2c(-c3ccccc3)c3[n](c2NC(=O)c2cccc(F)c2C(=O)O)[Zn-]([OH])[N+]2=C(NC(=O)C(C)Sc4cc(C(=O)O)cc(C(=O)O)c4)C(C#N)=C(c4ccccc4)C2=C3)C(C(C)(C)C)C1 (stereo not shown)", "nm", 560),
    ("CC1=C(C(=O)OC2C(C(C)(C)C)CC(C)CC2C(C)(C)C)C(NC(=O)c2ccc(C(F)(F)F)cc2F)=[N+]2C1=Cc1c(C)c(C(=O)OC3C(C(C)(C)C)CC(C)CC3C(C)(C)C)c(NC(=O)c3ccc(C(F)(F)F)cc3F)[n]1[Zn-]2[OH] (stereo not shown)", "nm", 550),
    ("Cc1c(C(=O)OC2C(C(C)(C)C)CC(C)CC2C(C)(C)C)c(NC(=O)c2ccccc2C(F)(F)F)[n]2c1C=C1C(c3ccccc3)=C(C#N)C(NC(=O)C(C)Sc3cc(C(=O)O)cc(C(=O)O)c3)=[N+]1[Zn-]2[OH] (stereo not shown)", "nm", 560),
    ("CC1CC(C(C)(C)C)C(OC(=O)c2c(-c3ccccc3)c3[n](c2NC(=O)c2ccc(F)c(F)c2)[Zn-]([OH])[N+]2=C(NC(=O)C(C)Sc4cc(C(=O)O)cc(C(=O)O)c4)C(C#N)=C(c4ccccc4)C2=C3)C(C(C)(C)C)C1 (stereo not shown)", "nm", 562),
]
